Molecular target: sc-apCC-4-SN38-1
Experiment: fluorescence saturation binding
Set-up: species or system synthetic construct
Conditions: ABS pH 4, 10% v/v DMSO, 1 μM SN38, 0-480 μM protein
pKd: −log10 of the molar value.
MEASUREMENT_LABEL: pKd

> print(dat)
                                   compound  result
1  CCc1c2c(nc3ccc(O)cc13)-c1cc3c(c(=O)n1C2)COC(=O)[C@]3(O)CC [SN38]    5.11

----------
Biological target: sc-apCC-4-SN38-1
Assay: fluorescence saturation binding
Parameters: species or system synthetic construct
Conditions: read-out: KD,Nile blue
MEASUREMENT_LABEL: Kd

> print(dat)
                            record.smiles  target.or.test.system   result
1  CCN(CC)c1ccc2nc3c4ccccc4c(=N)cc-3oc2c1       sc-apCC-4-SN38-1  ~400 nM

----------
Target: sc-apCC-4-LMF-1
Conditions: PBS pH 7.4, 10% v/v DMSO, 1 μM lumiflavin, 0-480 μM protein
MEASUREMENT_LABEL: Kd

> print(dat)
                                   compound  measurement.label   result
1  Cc1cc2nc3c(=O)[nH]c(=O)nc-3n(C)c2cc1C [lumiflavin]                 Kd  > 50 µM

----------
Target: sc-apCC-4-SN38-1
Test: fluorescence saturation binding
Set-up: species or system synthetic construct
Conditions: read-out: KD,Nile Red
MEASUREMENT_LABEL: Kd

> print(dat)
                            record.smiles   result
1  CCN(CC)c1ccc2nc3c4ccccc4c(=O)cc-3oc2c1  ~200 nM

----------
Property: pKd; scope: individual compounds
Biological target: sc-apCC-6-DPH-NR (P, promiscuous binder)
Assay: fluorescence saturation binding
Settings: PBS pH 7.4, 10% v/v MeCN, 0.5 μM ligand, 0-60 μM protein
pKd: −log10 of the molar value.
MEASUREMENT_LABEL: pKd

> print(dat)
                            record.smiles  result
1  CCN(CC)c1ccc2nc3c4ccccc4c(=O)cc-3oc2c1    5.66
2             C(=CC=Cc1ccccc1)C=Cc1ccccc1    5.72
